B1: ATL3 (parent)
chain: EKALASILLQDHIRDLDVVVVSVA

# Variants of: B1
# assay: protein stability index of a GFP-peptide fusion (GPS, HEK-293T) (PSI 1-6); higher = more stable;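 also: lentivirally expressed fusions sorted by FACS into six bins by GFP to DsRed ratio, PSI derived from sequencing read proportions per bin multiplied by bin number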
# assayConditions: c terminus: a fixed tail appended
protein stability index of 2 or higher: YES. Under 2: NO.

Record L8W ; criterion: protein stability index no lower than 2. Met? YES

Please tell me: is the variant V19H at or over 2 in terms of protein stability index? YES

Would you say L4A shows protein stability index at minimum 2? NO

Is protein stability index for V23A at or above 2? YES

Could you verify whether the entry E1I shows protein stability index of no less than 2? YES

Does protein stability index meet or surpass 2 for L8N ? NO

Entry H12P : is its protein stability index no less than 2? YES

Reported protein stability index at or above 2? V18K YES

Would you say V19R shows protein stability index at minimum 2? YES

Would you say V20D shows protein stability index at minimum 2? YES

// inclusive: protein stability index at least 2? input: D17P YES

# check: protein stability index of V18C is greater than or equal to 2 NO

Item V21S with protein stability index of 2 or above? NO

Is the recorded value of protein stability index equal to or greater than 2 for this variant? H12L YES

Please indicate if the recorded protein stability index for D11E meets or exceeds 2. YES

Answer whether protein stability index of V20Q is greater than or equal to 2. YES

Entry L4V : is its protein stability index no less than 2? YES

hey, is protein stability index for this one >= 2? V23N YES

Test whether the variant A24P records protein stability index of 2 or higher. YES

Could you verify whether the entry S6P shows protein stability index of no less than 2? NO

Has I13D a recorded protein stability index greater than or equal to 2? YES

Is it the case that L9E has protein stability index reaching or exceeding 2? YES

Tell me whether protein stability index is at least 2 here: R14W YES

Is protein stability index at least 2? Consider V20N YES

Check the entry Q10S : does protein stability index equal or exceed 2? YES

Identify whether the reported protein stability index of the following variant is 2 or greater: V21T NO

Decide: is the reported value of protein stability index for V23K equal to or greater than 2? YES

Is protein stability index for A5H at or above 2? NO

Check this variant for protein stability index at or above 2: I7R YES

Given the entry R14K , answer whether its protein stability index meets or surpasses 2. YES

Form field: protein stability index at least 2? Entry: I7P YES

Given V19Q , state whether its protein stability index is at least 2. NO

# check: protein stability index of V20E is greater than or equal to 2 YES

protein stability index >= 2 for L4T ? NO

Reported protein stability index at or above 2? R14N YES

Record H12I ; criterion: protein stability index no lower than 2. Met? YES

Evaluate S22H : protein stability index at minimum 2? NO

Determine whether measured protein stability index meets or exceeds 2 for V21Y NO

Check if protein stability index >= 2 (inclusive). Item: V20T NO

Does protein stability index meet or surpass 2 for I13T ? YES

Assess whether reported protein stability index for V23R sits at 2 or higher. NO

Could you verify whether the entry E1G shows protein stability index of no less than 2? YES

Given K2Y , state whether its protein stability index is at least 2. YES

Decide: protein stability index of A3Y >= 2? NO

Determine whether this variant has protein stability index no lower than 2: V18P YES

Does the reported protein stability index for E1R fall at or above the 2 mark? YES

Is reported protein stability index greater than or equal to 2 here: Q10Y YES

Could you tell me if the measured protein stability index of K2R reaches 2 or more? NO

Decide: is the reported value of protein stability index for V20P equal to or greater than 2? YES

Is it the case that D15W has protein stability index reaching or exceeding 2? YES

Determine whether this variant has protein stability index no lower than 2: V21I YES

Would you say D11G shows protein stability index at minimum 2? YES

API: above_or_equal(metric=protein stability index, cutoff=2) for item A24G YES

Form field: protein stability index at least 2? Entry: L8T NO

Does the reported protein stability index for V20K fall at or above the 2 mark? YES

Hello, I need to know if V19P has measured protein stability index not below 2. Thanks! YES

Decide: protein stability index of A5Q >= 2? YES

Does the variant I13S have recorded protein stability index that is 2 or more? NO

Given V19C , state whether its protein stability index is at least 2. YES

protein stability index >= 2 for L9M ? YES

Item L8P with protein stability index of 2 or above? YES

Determine whether measured protein stability index meets or exceeds 2 for L16S YES

Check if protein stability index >= 2 (inclusive). Item: V20Y YES

State whether the measured protein stability index reaches 2, counting equality as reaching it, for V21A NO

Does protein stability index meet or surpass 2 for S22D ? YES

Hello, I need to know if I7A has measured protein stability index not below 2. Thanks! YES

Quick check: does V18D have protein stability index greater than or equal to 2? YES

Kindly determine if protein stability index recorded for I7Y is above or exactly 2. YES

Given the entry L16N , answer whether its protein stability index meets or surpasses 2. NO

# check: protein stability index of D17Q is greater than or equal to 2 NO

Identify whether the reported protein stability index of the following variant is 2 or greater: V19A NO

For this variant, is measured protein stability index 2 or higher? S6K YES

Test whether the variant D11P records protein stability index of 2 or higher. YES
